Molecular target: Tyrosine-protein phosphatase non-receptor type 1 (Homo sapiens, UniProt P18031)
Sequence (P18031 whole entry): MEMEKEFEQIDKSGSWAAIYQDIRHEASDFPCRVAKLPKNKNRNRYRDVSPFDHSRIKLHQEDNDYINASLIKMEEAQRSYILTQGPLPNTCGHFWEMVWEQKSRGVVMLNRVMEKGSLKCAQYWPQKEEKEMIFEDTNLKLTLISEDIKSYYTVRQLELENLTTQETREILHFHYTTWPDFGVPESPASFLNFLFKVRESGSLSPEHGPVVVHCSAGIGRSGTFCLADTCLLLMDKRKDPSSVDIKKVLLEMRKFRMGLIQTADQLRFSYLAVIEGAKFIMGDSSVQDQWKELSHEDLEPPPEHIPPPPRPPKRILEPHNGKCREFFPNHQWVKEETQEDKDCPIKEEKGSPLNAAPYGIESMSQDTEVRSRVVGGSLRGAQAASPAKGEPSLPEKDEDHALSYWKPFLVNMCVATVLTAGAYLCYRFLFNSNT
Experiment: Inhibition of recombinant human PTP1B (1 to 322 residues) expressed in Escherichia coli using pNPP as substrate incubated for 10 mins measured for 30 mins by spectrometric analysis
pIC50: −log10 of the molar value.
reported.property: pIC50

Below are worked cases with known answers.
{"columns": ["compound", "pIC50"],
 "data": [
  ["CC(C)=CCc1c2c(c(O)c3c1O[C@]14C(=C[C@@H]5C[C@H]1C(C)(C)O[C@@]4(/C=C(/C)CO)C5=O)C3=O)C=CC(C)(C)O2", 4.15],
  ["CO[C@@H]1C2C(=O)c3c(O)c4c(c(CC=C(C)C)c3O[C@@]23[C@H]2C[C@@H]1C(=O)[C@]3(C/C=C(/C)C(=O)O)OC2(C)C)OC(C)(C)C=C4 (stereo not given in full)", 5.35]
]}

1: CC(C)=CCC/C(C)=C/Cc1c(O)c(CC=C(C)C)c2c(c1O)C(=O)C1=C[C@@H]3C[C@H]4C(C)(C)O[C@@](C/C=C(/C)C(=O)O)(C3=O)[C@@]14O2
2: CO[C@@H]1C2C(=O)c3c(O)c(C/C=C(\C)CCC=C(C)C)c(O)c(CC=C(C)C)c3O[C@@]23[C@H]2C[C@@H]1C(=O)[C@]3(C/C=C(/C)C(=O)O)OC2(C)C (stereo not given in full)
Query :: Hey, which is lower on measured pIC50, 1 or 2 ? Use the label to indicate which entry you chose.
Result :: 1
